Tested on: SW 982 tumor spheroid viability
Test: Anticancer human tumor SW 982 cell line growth inhibition;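 further: spheroids exposed to compound for 7 days before readout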
Details: second compound 0.0949 µM; first compound 1 µM; active compounds read low; spheroids with HUVEC and MSC
Observation Type: viability, T/C

Below, each entry is followed by its recorded viability, T/C result.
INSERT INTO assay_data (compound, observation_type, test_result) VALUES
  ('Cc1cc(C)c(CNC(=O)c2cc(-c3ccc(CN4CCOCC4)cc3)cc3c2cnn3C2CCCC2)c(=O)[nH]1 + CC[C@@]1(O)C(=O)OCc2c1cc1n(c2=O)Cc2cc3c(CN(C)C)c(O)ccc3nc2-1', 'viability, T/C', '89.6%'),
  ('COc1cc(C)[nH]c(=O)c1CN1CCc2c(Cl)cc(C(OC)C3COC3)c(Cl)c2C1=O (stereo not drawn) + CC[C@@]1(O)C(=O)OCc2c1cc1n(c2=O)Cc2cc3c(CN(C)C)c(O)ccc3nc2-1', 'viability, T/C', '63%');

Bench note: what viability, T/C did CC(C)n1c(=O)n(C)c2cnc3cc(F)c(-c4ccc(OCCCN5CCCCC5)nc4)cc3c21 + CC[C@@]1(O)C(=O)OCc2c1cc1n(c2=O)Cc2cc3c(CN(C)C)c(O)ccc3nc2-1 show?
39.3%
